This listing pairs compounds with measured IC50.
Assay: Cytotoxicity against mouse LLC cells
Format: functional, cell-based
Settings: Lewis lung carcinoma
Hi! Could you send only the number? It should be in µM, unit omitted.

Ask: Look up IC50 for this compound: `CCN(CC)CCn1nc2c3c(cc(C)cc31)C(=O)c1cc(OC)cc(OC)c1-2`
Result: 4.5

Ask: Look up IC50 for this compound: `CCN(CC)CCNCCn1nc2c3c(cc(C)cc31)C(=O)c1cc(OC)cc(OC)c1-2`
Result: 12.8

Ask: Look up IC50 for this compound: `COc1cc(OC)c2c(c1)C(=O)c1cc(C)cc3c1c-2nn3CCN1CCN(C)CC1`
Result: 8.9

###

System: B16
Assay: Cytotoxicity against mouse B16 cells
Type: functional, cell-based
Assay metric: IC50

Ask: Look up IC50 for this compound: `CCN(CC)CCNCCn1nc2c3c(cc(C)cc31)C(=O)c1cc(OC)cc(OC)c1-2`
Result: 10.1 µM

Ask: Look up IC50 for this compound: `COc1cc(OC)c2c(c1)C(=O)c1cc(C)cc3c1c-2nn3CCN1CCN(C)CC1`
Result: 20.1 µM

Ask: Look up IC50 for this compound: Cc1cc(O)c2c(c1)C(=O)c1cc(O)cc(O)c1C2=O [EMODIN]
Result: > 100 µM

Ask: Look up IC50 for this compound: `CCN(CC)CCn1nc2c3c(cc(C)cc31)C(=O)c1cc(OC)cc(OC)c1-2`
Result: 3.6 µM
